Source: paper PMC9482650

Assayed Target: NHERF4_1, Q86UT5-2
Sequence (Q86UT5 other isoform, or with tags, fused parts or gaps): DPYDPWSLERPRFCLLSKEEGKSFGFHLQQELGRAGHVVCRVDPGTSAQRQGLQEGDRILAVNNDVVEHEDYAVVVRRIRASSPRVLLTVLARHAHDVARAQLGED
Assay Summary: holdup assay
Design: key: below the threshold = too weak to quantify, mostly under pKd 3.1 to 4
Measurement Conditions: plain residues with an end cap or a label only (N-terminal biotin on a linker: ado-ado)
Parameter threshold = 4. Response is Fulfilled when pKd meets or exceeds it, else Not fulfilled.

Confirm if pKd reported for the binder THREVKFTSL [CD46, P15529] is 4 or above.
Fulfilled

Repeat with GTMFLRETSL [GUCY1A2, P33402]
Fulfilled

Repeat with QQGLLPHSSC [TYRO3, Q06418]
Not fulfilled

Repeat with IKLETKKTKL [SLC15A2, Q16348]
Fulfilled

Repeat with NKSEPFLTWL [WWTR1, Q9GZV5]
Fulfilled

Repeat with RDYTQSSSSL [GRM5, P41594]
Fulfilled

Repeat with LLQEEWETVM [PTH1R, Q03431]
Not fulfilled

Repeat with EFKQTSSFLV [JAM1, Q9Y624]
Not fulfilled

Repeat with SGDGKTSVWI [GJC1, P36383]
Not fulfilled
